Origin of the recorded values: paper PMC7994203

target: GST-CIN85-SH3B; assay: SPR; proteins immobilized via an N-terminal GST-tag, peptides as analyte; Biacore T200, steady-state affinity
measurement type: Kd (nM)
Express your answer in nM, writing the number without its unit.

Quick check: Kd of PERPPKPFPRRIN (also called proline-rich peptide of CBL) [PepC1] ?
2300
